Where do the numbers come from? From patent US11766447B2.

Known EC50 of a selection of molecules
Tested on: peripheral blood mononuclear cells (PBMC)
procedure summary: Peripheral blood mononuclear cell (PBMC) assay
Assay type: cell-based
measurement conditions: interferon-alpha level; 1 h with compounds, washed, 15 hour incubation; average of one to four donors; read-out: PBMC EC50 (μM) IFN-α
quantity: EC50 (µM)

molecule	reported measurement
CC(C)(C)C(=O)OCSP1(=O)OC[C@H]2O[C@@H](n3cnc4c(=O)[nH]c(N)nc43)[C@H](F)[C@@H]2OP(=O)(SCOC(=O)C(C)(C)C)OC[C@H]2C[C@@H](n3cnc4c(N)ncnc43)[C@H](F)[C@@H]2O1 (single isomer, unassigned) [Compound 150a]	1
CC(C)(C)C(=O)OCOP1(=O)OC[C@H]2C[C@@H](n3cnc4c(N)ncnc43)C(F)C2OP(=O)(OCOC(=O)C(C)(C)C)OC[C@H]2C[C@@H](n3cnc4c(N)ncnc43)C(F)C2O1 (single isomer, unassigned) [Compound 138b]	1
CC(C)(C)C(=O)OCOP1(=O)OC[C@H]2O[C@@H](n3cnc4c(N)ncnc43)CC2OP(=O)(OCOC(=O)C(C)(C)C)OC[C@H]2C[C@@H](n3cnc4c(N)ncnc43)C(F)C2O1 (stereo partly drawn) [Compound 139b]	0.3
CC(C)(C)C(=O)OCOP1(=O)OC[C@H]2C[C@@H](n3cnc4c(N)ncnc43)C(F)C2OP(=O)(OCOC(=O)C(C)(C)C)OC[C@H]2C[C@@H](n3cnc4c(N)ncnc43)C(F)C2O1 (single isomer, unassigned) [Compound 138a]	3.2
CCCCCCCC(=O)OCOP1(=O)OC[C@H]2O[C@@H](n3cnc4c(N)ncnc43)[C@H](F)[C@@H]2OP(=O)(OCOC(=O)CCCCCCC)OC[C@H]2C[C@@H](n3cnc4c(N)ncnc43)[C@H](F)[C@@H]2O1 (single isomer, unassigned) [Compound 146c]	0.02
CCCCCCCC(=O)OCOP1(=O)OC[C@H]2O[C@@H](n3cnc4c(N)ncnc43)[C@H](F)[C@@H]2OP(=O)(OCOC(=O)CCCCCCC)OC[C@H]2C[C@@H](n3cnc4c(N)ncnc43)[C@H](F)[C@@H]2O1 (single isomer, unassigned) [Compound 146b]	0.02

* * *

ΔTm at 150 µM reference
tested system: AQ STING (G230A-R293Q) (Homo sapiens, UniProt Q86WV6, G230A/H232R/R293Q)
Construct: 8xHis (N, cleaved yes); SUMO (N, cleaved yes); made in house; host or cells: E. coli Rosetta-gami B (DE3)
Sequence (Q86WV6 140-343 G230A/H232R/R293Q): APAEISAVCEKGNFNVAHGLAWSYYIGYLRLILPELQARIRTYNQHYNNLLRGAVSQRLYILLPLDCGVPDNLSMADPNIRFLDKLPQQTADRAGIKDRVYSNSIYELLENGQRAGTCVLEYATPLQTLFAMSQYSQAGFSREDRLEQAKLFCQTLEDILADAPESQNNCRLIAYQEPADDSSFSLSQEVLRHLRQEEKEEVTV
procedure summary: Differential scanning fluorimetry (DSF) with AQ STING
Format: binding
measurement conditions: thermal shift vs apoprotein; 150 μM CDN; truncated human AQ STING 0.1 mg/ml

compound	ΔTm at 150 µM, °C
Nc1nc2c(ncn2[C@H]2CC3OP(=O)(O)OC[C@H]4O[C@@H](n5cnc6c(N)ncnc65)CC4OP(=O)(O)OC[C@H]3C2)c(=O)[nH]1 (stereo partly drawn)	7.1
Nc1ncnc2c1ncn2[C@@H]1O[C@@H]2COP(=O)(O)OC3C(O)[C@H](n4cnc5c(=O)[nH]cnc54)C[C@@H]3COP(=O)(O)OC2C1O (stereo partly drawn)	11.4
Nc1nc2c(ncn2[C@@H]2C[C@@H]3COP(=O)(O)OC4C(O)[C@H](n5cnc6c(N)ncnc65)O[C@@H]4COP(=O)(O)OC3C2O)c(=O)[nH]1 (stereo partly drawn)	7.9
Nc1nc2c(ncn2[C@@H]2O[C@@H]3COP(=O)(O)OC4C(O)[C@H](n5cnc6c(N)ncnc65)C[C@@H]4COP(=O)(O)OC3C2F)c(=O)[nH]1 (single isomer, unassigned)	18.5
Nc1ncnc2c1ncn2[C@@H]1C[C@@H]2COP(=O)(O)OC3C[C@H](n4cnc5c(N)ncnc54)O[C@@H]3COP(=O)(O)OC2C1F (stereo partly drawn)	12.8
Nc1nc2c(ncn2[C@H]2CC3OP(=O)(O)OC[C@H]4O[C@@H](n5cnc6c(N)ncnc65)C(F)C4OP(=O)(O)OC[C@H]3C2)c(=O)[nH]1 (stereo partly drawn)	13.1
Nc1ncnc2c1ncn2[C@H]1CC2OP(=O)(O)OC[C@H]3O[C@@H](n4cnc5c(N)ncnc54)C(F)C3OP(=O)(O)OC[C@H]2C1 (stereo partly drawn)	16.6
Nc1ncnc2c1ncn2[C@@H]1O[C@@H]2COP(=O)(O)OC3C(O)[C@H](n4cnc5c(=O)[nH]cnc54)C[C@@H]3COP(=O)(O)OC2C1F (stereo partly drawn)	16.7
Nc1ncnc2c1ncn2[C@H]1CC2OP(=O)(O)OC[C@H]3O[C@@H](n4cnc5c(N)ncnc54)CC3OP(=O)(O)OC[C@H]2C1 (stereo partly drawn)	7.5
Nc1ncnc2c1ncn2[C@@H]1C[C@@H]2COP(=O)(O)OC3C(O)[C@H](n4cnc5c(N)ncnc54)C[C@@H]3COP(=O)(O)OC2C1O (stereo partly drawn)	4.4
Nc1ncnc2c1ncn2[C@@H]1C[C@@H]2COP(=O)(O)O[C@H]3[C@@H](F)[C@H](n4cnc5c(N)ncnc54)O[C@@H]3COP(=O)(S)O[C@H]2[C@H]1F (single isomer, unassigned) [Compound 130a]	20.7
COC1C2OP(=O)(O)OC[C@H]3C[C@@H](n4cnc5c(=O)[nH]c(N)nc54)C(O)C3OP(=O)(O)OC[C@H]2O[C@H]1n1cnc2c(N)ncnc21 (stereo partly drawn)	1.5
Nc1nc2c(ncn2[C@@H]2O[C@@H]3COP(=O)(O)OC4C(O)[C@H](n5cnc6c(N)ncnc65)C[C@@H]4COP(=O)(O)OC3C2O)c(=O)[nH]1 (stereo partly drawn)	14.3
Nc1nc2c(ncn2[C@@H]2O[C@@H]3COP(=O)(O)O[C@@H]4[C@@H](COP(=O)(O)O[C@H]3[C@H]2F)C[C@@H](n2cnc3c(N)ncnc32)[C@@H]4F)c(=O)[nH]1	21.4
Nc1ncnc2c1ncn2[C@@H]1C[C@@H]2COP(=O)(O)O[C@H]3[C@@H](F)[C@H](n4cnc5c(N)ncnc54)O[C@@H]3COP(=O)(O)O[C@H]2[C@@H]1F	7.9
Nc1nc2c(ncn2[C@H]2CC3OP(=O)(S)OC[C@H]4O[C@@H](n5cnc6c(N)ncnc65)C(F)C4OP(=O)(S)OC[C@H]3C2)c(=O)[nH]1 (single isomer, unassigned) [Compound 129a]	14
COC1C2OP(=O)(O)OC[C@H]3C[C@@H](n4cnc5c(N)ncnc54)C(O)C3OP(=O)(O)OC[C@H]2O[C@H]1n1cnc2c(=O)[nH]c(N)nc21 (stereo partly drawn)	4.6
Nc1ncnc2c1ncn2[C@@H]1C[C@@H]2COP(=O)(O)O[C@H]3[C@@H](F)[C@H](n4cnc5c(N)ncnc54)O[C@@H]3COP(=O)(O)O[C@H]2[C@H]1O	13.2

* * *

tested system: WT STING (Homo sapiens, UniProt Q86WV6, H232R)
Sequence (Q86WV6 whole entry H232R): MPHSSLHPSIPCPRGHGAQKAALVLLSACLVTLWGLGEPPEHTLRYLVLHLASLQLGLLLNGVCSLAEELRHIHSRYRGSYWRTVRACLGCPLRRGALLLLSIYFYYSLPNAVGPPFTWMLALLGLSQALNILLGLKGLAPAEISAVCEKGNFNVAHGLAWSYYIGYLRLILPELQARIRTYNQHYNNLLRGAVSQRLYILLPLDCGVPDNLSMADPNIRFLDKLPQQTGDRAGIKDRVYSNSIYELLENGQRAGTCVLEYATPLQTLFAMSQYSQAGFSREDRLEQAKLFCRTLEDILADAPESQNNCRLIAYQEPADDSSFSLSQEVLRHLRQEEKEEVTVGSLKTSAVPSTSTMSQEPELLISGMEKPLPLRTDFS
procedure summary: 293T WT STING standard reporter assay
Type: cell-based
Design: host or cells: 293T (ATCC CRL-3216), stably transfected, with 4xISRE firefly luciferase reporter
measurement conditions: 293T wtSTING-FL cells, ISRE firefly luciferase; no digitonin; 7 hours with compounds; 8-point curve
pEC50: −log10 of the molar value.
quantity: pEC50

compound	quantity	reported measurement
CC1(C(=O)OCOP2(=O)OC[C@H]3O[C@@H](n4cnc5c(N)ncnc54)C(F)C3OP(=O)(OCOC(=O)C3(C)CCCCC3)OC[C@H]3C[C@@H](n4cnc5c(N)ncnc54)C(F)C3O2)CCCCC1 (stereo partly shown) [Compound 145c]	pEC50	8.22
CC(C)(C)C(=O)OCOP1(=O)OC[C@H]2C[C@@H](n3cnc4c(N)ncnc43)C(F)C2OP(=O)(OCOC(=O)C(C)(C)C)OC[C@H]2C[C@@H](n3cnc4c(N)ncnc43)C(F)C2O1 (single isomer, unassigned) [Compound 138a]	pEC50	7.15
CC1(C(=O)OCOP2(=O)OC[C@H]3O[C@@H](n4cnc5c(N)ncnc54)[C@H](F)[C@@H]3OP(=O)(OCOC(=O)C3(C)CCCCC3)OC[C@H]3C[C@@H](n4cnc5c(N)ncnc54)[C@H](F)[C@@H]3O2)CCCCC1 (single isomer, unassigned) [Compound 145a]	pEC50	6.92
Nc1ncnc2c1ncn2[C@@H]1C[C@@H]2COP(=O)(O)O[C@H]3[C@@H](F)[C@H](n4cnc5c(N)ncnc54)O[C@@H]3COP(=O)(S)O[C@H]2[C@H]1F (single isomer, unassigned) [Compound 130a]	pEC50	6.00

* * *

tested system: AQ STING (G230A-R293Q) (Homo sapiens, UniProt Q86WV6, G230A/H232R/R293Q)
Construct: 8xHis (N, cleaved yes); SUMO (N, cleaved yes); made in house; host or cells: E. coli Rosetta-gami B (DE3)
procedure summary: Differential scanning fluorimetry (DSF) with AQ STING
Format: binding
measurement conditions: thermal shift vs apoprotein; 150 μM CDN; truncated human AQ STING 0.1 mg/ml

molecule	DSF ΔTm (° C.) AQ STING
Nc1ncnc2c1ncn2[C@@H]1C[C@@H]2COP(=O)(O)OC3C(F)[C@H](n4cnc5c(N)ncnc54)O[C@@H]3COP(=O)(S)OC2C1F (single isomer, unassigned) [Compound 141b]	11.6 °C
Nc1nc2c(ncn2[C@@H]2O[C@@H]3COP(=O)(O)OC4C(O)[C@H](n5cnc6c(N)ncnc65)C[C@@H]4COP(=O)(O)OC3C2F)c(=O)[nH]1 (single isomer, unassigned)	13.7 °C
Nc1nc2c(ncn2[C@@H]2C[C@@H]3COP(=O)(S)O[C@H]4[C@@H](F)[C@H](n5cnc6c(N)ncnc65)O[C@@H]4COP(=O)(S)O[C@H]3C2)c(=O)[nH]1 (single isomer, unassigned) [Compound 129d]	20.8 °C
Nc1nc2c(ncn2[C@@H]2C[C@@H]3COP(=O)(O)OC4C(F)[C@H](n5cnc6c(N)ncnc65)O[C@@H]4COP(=O)(O)OC3C2O)c(=O)[nH]1 (single isomer, unassigned) [Compound 103]	16.6 °C
Nc1ncnc2c1ncn2[C@@H]1C[C@@H]2COP(=O)(S)OC3C(F)[C@H](n4cnc5c(N)ncnc54)O[C@@H]3COP(=O)(S)OC2C1F (single isomer, unassigned) [Compound 102b]	16.9 °C
